# protocolDetails: soluble on expression in E. coli; label from the status in PepcDB or PDB records
observationType: soluble on expression in E. coli

[[record]]
seqstring = "LPAMEIECRITGTLNGVEFELVGGGEGTPEQGRMTNKMKSTKGALTFSPYLLSHVMGYGFYHFGTYPSGYENPFLHAINNGGYTNTRIEKYEDGGVLHVSFSYRYEAGRVIGDFKVMGTGFPEDSVIFTDKIIRSNATVEHLHPMGDNDLDGSFTRTFSLRDGGYYSSVVDSHMHFKSAIHPSILQNGGPMFAFRRVEEDHSNTELGIVEYQHAFKTPD"
result = "soluble"

[[record]]
seqstring = "GACDNDTEPGGTAVEKMAGDWWVTVNAFIDGKEVEDPFGAGHLQMSTYNTASNSETEMWLDDLGNFWEYKLKVNVNYAARTFSTTGFVDNVTYESKVKITDGKVLEKAATTPSGMPADSIVYMVQFDDDEDGLTYKVSGFRRTGFPADDF"
result = "soluble"


----------
# protocolDetails: soluble on expression in E. coli; label from the status in PepcDB or PDB records
observationType: soluble on expression in E. coli

[[record]]
seqstring = "MSVKKKTQVRTGKMVRELMLADEDVNASLIMVYSENGVNAEIKIEGLTPKCNEELFLSGNVDWNKSVIYKIVDFTGNAEVGKVTLTAMNKNNVSLEIERVMWSKENKEAAEQEETQVEAAPKKEVVVEAPKAITPAPKPVTRVETPAMAPKPTPVPTPKPVSVEAAVELVTPAPVKKAVPTPVTKQETAPVAPAKPKQPALTETNSKLQENYVKLVKKTIEVCQDYELGIDIDDSIESLKEELQSQGISVTFDKEIMDVVNRLRSLQDKGIKVEKVLNLL"
result = "not soluble"

[[record]]
seqstring = "MGSDKIHHHHHHMVKRMKLPESKNLSLYWEKYSFLLLEGSNSKDKEIVSKIFQTVEKLQSDFGKISSILKERREQLIKKRKPFINLKMRVKGKLLLGAGNPSSIEVGITLSRNYGLPIIPGTAVKGAFASFLFEFERDKYESLAHIFGDTEREGDLIFLDAIPVSDLKFSLDIVNPHFQPYYMKEKLPPNDWYDPVPIKYLVVSSGVFWFTVLESRSGVIGNSEKELIKQRFVEMLKAYGLGAKTSYGYGRFEEPS"
result = "not soluble"

[[record]]
seqstring = "LQVYTSDNQLIAEYGGKLSVPVEYNQIPPTFIHAFLAAEDSSFFEHSGISFKGLGRALSETVTGSNVQTGGSTITMQVAKNYYLSPERTLKRKLTEIFLARKIEQNLTKQEILSLYVNKIFLGKNAYGIAAAAKIYYNKTLDQLSIAEMAMISGLPKAPSKYNPVVNP"
result = "not soluble"


----------
# protocolDetails: soluble on expression in E. coli; label from the status in PepcDB or PDB records
observationType: soluble on expression in E. coli

[[record]]
seqstring = "AELTALESLIEMGFPRGRAEKALALTGNQGIEAAMDWLMEHEDDPDVDEPL"
result = "soluble"

[[record]]
seqstring = "MGSDKIHHHHHHMNNKGKLAILFIDALPYFKSRNIGQILNLYRLIPGLGYSVNQHYELLYGKTPDDVGFFGEWSLGCSTKFDTIKFRFHKTIDSILWKLKLNLIRKGYRKIILRLEDMIPLGRRKYFLRKGTYAFRELAKEGFILYNTQFRGYIEELDRTLPRNEEKRMETMFNKMFNIAKNTDHPLLFTINIIDHIGHKYGPESPEYDYFLDLFAKKLLDLLIFLKENGFHVILFSDHGMSPYKAKVNLSDFEHYFGKFFGKYIVYFYDSLYFRAWIFDSFLYLEIEEFLNKLPGKILSSNDRKKFGVVHEEHGHVIFVLNEGFTFHPNYFGYSVMKGYHGYLPEFERQHGIAAFSRAFKIDNLFQGNPPKYLNSIDFSRIIKHILEANRNV"
result = "not soluble"

[[record]]
seqstring = "MGQSFSSSFNAKQTSSSTPQKSTKTPTCSDPRSPSQDIERTPIQVKTVENDENGSSESSTTKADKPRKTSLRQKMFARKKNMNSETDE"
result = "not soluble"

[[record]]
seqstring = "MNSYPLISVIMSVYKEEREWLVSSIQSILDQTVSDFEFIIILDFPNSELLKTLKDFEKKDSRIIIYQNEKNVGLVESLNTALSFSRGKYIARMDADDISHKNRFEKQLKYITLNNLDLVGGNVNIFHSNKGIYNTTDKVQSDYFLCKLLKIGTIGIVHPTFFSKRNVYDTIGGYYHAECAEDLELLMRANLNGFKIGNIPDVILDCRYSEKSITKENAYFMFCTVKYLKSLYRSSLKSGDYKFNSNYIELYLYDENNKLAFSEKQNLMSEARHSFNEKKYISFLINLIKSILISRTVFFSIKVNVMSFLFRKVEVKIPKVLLACIKIKLQLEHHHHHH"
result = "soluble"


Taken from the DeepSol protein solubility set.
